// reported pIC50 per item
molecular target: rat NaP2b (SLC34A2) (Rattus norvegicus, UniProt Q9JJ09); construct: host or cells: HEK293; test: Inhibition of NaP2b-mediated Pi (33P) uptake in transfected HEK293 cells, rat NaP2b; assay type: cell-based; settings: 33P Pi uptake, 0.1 mM phosphate, value given as pIC50 range
Sequence (Q9JJ09 whole entry): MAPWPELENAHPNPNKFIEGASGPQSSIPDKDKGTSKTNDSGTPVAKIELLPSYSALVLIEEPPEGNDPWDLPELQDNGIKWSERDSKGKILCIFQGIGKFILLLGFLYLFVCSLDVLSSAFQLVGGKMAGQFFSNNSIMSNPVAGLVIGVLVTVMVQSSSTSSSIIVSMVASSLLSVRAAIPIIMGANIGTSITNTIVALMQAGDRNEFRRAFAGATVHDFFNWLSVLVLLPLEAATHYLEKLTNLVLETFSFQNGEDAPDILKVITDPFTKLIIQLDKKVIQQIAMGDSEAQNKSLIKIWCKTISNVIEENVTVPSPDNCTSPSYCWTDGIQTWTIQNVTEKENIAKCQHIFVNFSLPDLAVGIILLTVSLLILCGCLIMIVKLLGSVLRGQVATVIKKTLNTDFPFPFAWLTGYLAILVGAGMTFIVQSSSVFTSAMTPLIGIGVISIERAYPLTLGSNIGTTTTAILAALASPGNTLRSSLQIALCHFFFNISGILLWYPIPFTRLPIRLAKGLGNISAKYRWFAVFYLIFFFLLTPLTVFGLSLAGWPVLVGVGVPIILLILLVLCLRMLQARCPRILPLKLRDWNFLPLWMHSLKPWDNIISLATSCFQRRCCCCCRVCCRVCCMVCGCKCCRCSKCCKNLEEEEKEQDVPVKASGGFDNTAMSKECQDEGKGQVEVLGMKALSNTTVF
pIC50: −log10 of the molar value.

Worked cases, pIC50 given:
compound	pIC50
CCN(CC)c1ccc(NC(=O)c2cccc(CSCCOCCOCCOCCOCCC(=O)NC(CO)CO)c2)c(-c2cc(C(=O)N[C@H]3CCCc4ccccc43)ccn2)c1 [Example 159]	> 6.00
CCN(CC)c1ccc(NC(=O)c2cccc(CSCCOCCOCCOCCOCCC(=O)N(CCO)CCO)c2)c(-c2cc(C(=O)N[C@H]3CCCc4ccccc43)ccn2)c1 [Example 160]	> 6.00
COCCNC(=O)C1CCCN(Cc2cccc(C(=O)Nc3ccc(N4CCCCC4)cc3-c3cc(C(=O)NCc4cccc(C(F)(F)F)c4)ccn3)c2)C1 (stereo in doubt) [Example 12.2]	4.50 to 5.00
O=C(O)CCOCCOCCOCCOCCCc1cccc(C(=O)Nc2ccc(Cl)cc2-c2cc(C(=O)N[C@H]3CCCc4ccccc43)ccn2)c1 [Example 253]	> 6.00

Request: Under rat NaP2b (SLC34A2) (Rattus norvegicus, UniProt Q9JJ09): report pIC50 of CCN(CC)c1ccc(NC(=O)c2cccc(CCCOCCOCCOCCOCCN)c2)c(-c2cc(C(=O)NCc3cccc(C(F)(F)F)c3)ccn2)c1 [Example 270] .
Response: 5.10 to 6.00

Request: Under rat NaP2b (SLC34A2) (Rattus norvegicus, UniProt Q9JJ09): report pIC50 of CN(CCOCCOCCOCCC(=O)O)C(=O)c1cccc(C(=O)Nc2ccc(Cl)cc2-c2cc(C(=O)N[C@H]3CCCc4ccccc43)ccn2)c1 [Example 237] .
Response: 5.10 to 6.00

Request: Under rat NaP2b (SLC34A2) (Rattus norvegicus, UniProt Q9JJ09): report pIC50 of O=C(NCc1cccc(C(F)(F)F)c1)c1ccnc(-c2cc(N3CCCCC3)ccc2NC(=O)c2cccc(CSCCCO)c2)c1 [Example 8.3] .
Response: 5.10 to 6.00

Request: Under rat NaP2b (SLC34A2) (Rattus norvegicus, UniProt Q9JJ09): report pIC50 of COc1cc(C(F)(F)F)ccc1CNC(=O)c1ccnc(-c2cc(N3CCCCC3)ccc2NC(=O)c2cccc(C(=O)N(C)CCN3CCOCC3)c2)c1 [Example 121] .
Response: 5.10 to 6.00

---

// reported pIC50 per item
molecular target: rat NaP2b (SLC34A2) (Rattus norvegicus, UniProt Q9JJ09); construct: host or cells: HEK293; assay: Inhibition of NaP2b-mediated Pi (33P) uptake in transfected HEK293 cells, rat NaP2b; type: cell-based; conditions: 33P Pi uptake, 0.1 mM phosphate, value given as pIC50 range
pIC50: −log10 of the molar value.

Worked cases, pIC50 given:
compound	pIC50
CN1CCN(CCN(C)C(=O)c2cccc(C(=O)Nc3ccc(N4CCCCC4)cc3-c3cc(C(=O)N[C@H]4CCCc5ccccc54)ccn3)c2)CC1=O [Example 216]	> 6.00
O=C(NCc1cccc(C(F)(F)F)c1)c1ccnc(-c2cc(N3CCCCC3)ccc2NC(=O)c2cccc(C(=O)N(CCN3CCOCC3)Cc3ccccc3)c2)c1 [Example 4.12]	5.10 to 6.00

Request: Read the entry O=C(NCCN1CCOCC1)c1cccc(SCc2cccc(C(=O)Nc3ccc(N4CCCCC4)cc3-c3cc(C(=O)NCc4cccc(C(F)(F)F)c4)ccn3)c2)c1 [Example 10.6] and write its reported pIC50.
Response: 5.10 to 6.00

Request: Read the entry CC(=O)N[C@@H]1CCN(Cc2cccc(C(=O)Nc3ccc(N4CCCCC4)cc3-c3cc(C(=O)NCc4cccc(C(F)(F)F)c4)ccn3)n2)C1 [Example 55, 2,2,2-trifluoroacetate] and write its reported pIC50.
Response: 5.10 to 6.00

Request: Read the entry CCN(CC)c1ccc(NC(=O)c2cccc(C(=O)N(C)CCN3CCC[C@H]3C(=O)NCCOCCOCCOCCOCCOCCOCCOCCOC)c2)c(-c2cc(C(=O)N[C@H]3CCCc4ccccc43)ccn2)c1 [Example 196] and write its reported pIC50.
Response: 5.10 to 6.00

// data source = patent US20140023611A1
